A collection of substances and their measured percent inhibition of Factor 7 mRNA, relative to untreated control cells
# System: human Factor 7 mRNA
# ASSAY_INFO: Dose-dependent antisense inhibition of human Factor 7 in HepB3 cells, lipofectin
# Assay type: cell-based
# TEST_PARAMETERS: 3.125 nM, HepB3 cells, approx. 16 hours (Table 14)
Strand notation (5' to 3'): a small letter for the sugar, then the base; units joined by * are phosphorothioate-linked, units joined directly phosphodiester-linked; [ ] holds rarer units or linkages, { } end groups; capitals alone tell only the bases. e = 2'-O-(2-methoxyethyl) (MOE); [5mC] = 5-methylcytosine; d = 2'-deoxy (DNA)
In your response, put the unit directly after the numeric value.

Reference set (6 entries):
[[record]]
substance = "422086 (antisense eT*eG*e[5mC]*eA*eT*dG*dG*dT*dG*dA*dT*dG*d[5mC]*dT*dT*e[5mC]*eT*eG*eA*eA) [compound 422086]"
target_of_assay = "human Factor 7 mRNA"
result = "8%"

[[record]]
substance = "422150 (antisense eG*e[5mC]*eA*dT*dG*dG*dT*dG*dA*dT*dG*d[5mC]*dT*dT*d[5mC]*dT*dG*eA*eA*eT) [compound 422150]"
target_of_assay = "human Factor 7 mRNA"
result = "9%"

[[record]]
substance = "422217 (antisense eG*eA*eG*dT*dT*d[5mC]*dT*dG*d[5mC]*dA*dG*dG*dA*dG*d[5mC]*dG*dG*e[5mC]*e[5mC]*eT) [compound 422217]"
target_of_assay = "human Factor 7 mRNA"
result = "8%"

[[record]]
substance = "422228 (antisense eT*eG*d[5mC]*dA*dT*dG*dG*dT*dG*dA*dT*dG*d[5mC]*dT*dT*e[5mC]*eT*eG*eA*eA) [compound 422228]"
target_of_assay = "human Factor 7 mRNA"
result = "17%"

[[record]]
substance = "422096 (antisense eA*eG*eA*e[5mC]*eA*dA*dT*dG*dG*dT*d[5mC]*dA*dG*dG*dG*e[5mC]*eT*eG*eG*eT) [compound 422096]"
target_of_assay = "human Factor 7 mRNA"
result = "17%"

[[record]]
substance = "422215 (antisense eG*eT*eT*d[5mC]*dT*dG*d[5mC]*dA*dG*dG*dA*dG*d[5mC]*dG*dG*d[5mC]*d[5mC]*eT*eA*eA) [compound 422215]"
target_of_assay = "human Factor 7 mRNA"
result = "13%"


Query (substance): 407939 (antisense eT*eG*e[5mC]*eA*eG*d[5mC]*d[5mC]*d[5mC]*dG*dG*d[5mC]*dA*d[5mC]*d[5mC]*d[5mC]*eA*eG*e[5mC]*eG*eA) [compound 407939] ; field requested: percent inhibition of Factor 7 mRNA, relative to untreated control cells
17%

Using the record for 422252 (antisense e[5mC]*eG*d[5mC]*d[5mC]*dG*dG*d[5mC]*dT*d[5mC]*dT*dG*d[5mC]*dT*d[5mC]*dA*eT*e[5mC]*e[5mC]*e[5mC]*e[5mC]) [compound 422252] , report its percent inhibition of Factor 7 mRNA, relative to untreated control cells.
18%

Recorded percent inhibition of Factor 7 mRNA, relative to untreated control cells for 422294 (antisense eG*eA*dG*dT*dT*d[5mC]*dT*dG*d[5mC]*dA*dG*dG*dA*dG*d[5mC]*eG*eG*e[5mC]*e[5mC]*eT) [compound 422294] , please?
9%

Entry 422087 (antisense e[5mC]*eA*eT*eG*e[5mC]*dA*dT*dG*dG*dT*dG*dA*dT*dG*d[5mC]*eT*eT*e[5mC]*eT*eG) [compound 422087] has what percent inhibition of Factor 7 mRNA, relative to untreated control cells?
14%

Fill in the blank: the reported percent inhibition of Factor 7 mRNA, relative to untreated control cells of 422177 (antisense e[5mC]*e[5mC]*e[5mC]*dG*d[5mC]*d[5mC]*dG*dG*d[5mC]*dT*d[5mC]*dT*dG*d[5mC]*dT*d[5mC]*dA*eT*e[5mC]*e[5mC]) [compound 422177] is ____.
12%

---

# Test system: human Factor 7 mRNA
# ASSAY_INFO: Dose-dependent antisense inhibition of human Factor 7 in HepB3 cells, lipofectin
# Type: cell-based
# TEST_PARAMETERS: 100 nM, HepB3 cells, approx. 16 hours (Table 14)
# Experimental: Cells were plated at a density of 4,000 cells per well and treated with lipofectin reagent with 3.125 nM, 6.25 nM, 12.5 nM, 25 nM, 50 nM, and 100 nM concentrations of antisense oligonucleotide, as indicated in Table 3. After a treatment period of approximately 16 hours, RNA was isolated from the cells and Factor 7 mRNA levels were measured by real-time RT-PCR, as described herein. […] Factor 7 mRNA levels were adjusted according to total RNA content as measured by RIBOGREEN®. […]
Strand notation (5' to 3'): a small letter for the sugar, then the base; units joined by * are phosphorothioate-linked, units joined directly phosphodiester-linked; [ ] holds rarer units or linkages, { } end groups; capitals alone tell only the bases. e = 2'-O-(2-methoxyethyl) (MOE); [5mC] = 5-methylcytosine; d = 2'-deoxy (DNA)
REPORTED_ENDPOINT: percent inhibition of Factor 7 mRNA, relative to untreated control cells (%)
Give your result in % as a bare value.

[[record]]
substance = "422177 (antisense e[5mC]*e[5mC]*e[5mC]*dG*d[5mC]*d[5mC]*dG*dG*d[5mC]*dT*d[5mC]*dT*dG*d[5mC]*dT*d[5mC]*dA*eT*e[5mC]*e[5mC]) [compound 422177]"
result_number = 88

[[record]]
substance = "422096 (antisense eA*eG*eA*e[5mC]*eA*dA*dT*dG*dG*dT*d[5mC]*dA*dG*dG*dG*e[5mC]*eT*eG*eG*eT) [compound 422096]"
result_number = 82


We now examine a further substance.
# query: percent inhibition of Factor 7 mRNA, relative to untreated control cells of entry 422228 (antisense eT*eG*d[5mC]*dA*dT*dG*dG*dT*dG*dA*dT*dG*d[5mC]*dT*dT*e[5mC]*eT*eG*eA*eA) [compound 422228]
90

---

# Test system: human Factor 7 mRNA
# ASSAY_INFO: Antisense inhibition of human Factor 7 mRNA in HepB3 cells, 50 nM antisense oligonucleotide, lipofectin
# Type: cell-based
# TEST_PARAMETERS: gapmers targeted to nucleobases 4868 to 4899 of SEQ ID NO: 1, Table 8
Strand notation (5' to 3'): a small letter for the sugar, then the base; units joined by * are phosphorothioate-linked, units joined directly phosphodiester-linked; [ ] holds rarer units or linkages, { } end groups; capitals alone tell only the bases. e = 2'-O-(2-methoxyethyl) (MOE); [5mC] = 5-methylcytosine; d = 2'-deoxy (DNA)
Given measured % Inhibition of human Factor 7 mRNA levels, output true if it is greater than or equal to 60% and false if not.

Previously resolved entries follow.
[[record]]
substance = "422145 (antisense eG*e[5mC]*e[5mC]*e[5mC]*eG*dA*dG*dT*dT*d[5mC]*dT*dG*d[5mC]*dA*dG*eG*eA*eG*e[5mC]*eG) [compound 422145]"
group = "false"

[[record]]
substance = "422213 (antisense eT*e[5mC]*eT*dG*d[5mC]*dA*dG*dG*dA*dG*d[5mC]*dG*dG*d[5mC]*d[5mC]*dT*dA*eA*eA*eT) [compound 422213]"
group = "true"

[[record]]
substance = "422144 (antisense e[5mC]*e[5mC]*e[5mC]*eG*eA*dG*dT*dT*d[5mC]*dT*dG*d[5mC]*dA*dG*dG*eA*eG*e[5mC]*eG*eG) [compound 422144]"
group = "false"


Then there is this substance:
Please check the record 422225 (antisense eA*eG*eG*dA*dG*d[5mC]*d[5mC]*d[5mC]*dG*dA*dG*dT*dT*d[5mC]*dT*dG*d[5mC]*eA*eG*eG) [compound 422225] and state if its % Inhibition of human Factor 7 mRNA levels is at or above 60%.
false

---

Form field: % Inhibition (one value per entry).
# Test system: human Factor 7 mRNA
# ASSAY_INFO: Antisense inhibition of human Factor 7 mRNA in HepB3 cells, 50 nM antisense oligonucleotide, lipofectin
# Type: cell-based
# TEST_PARAMETERS: Table 1, 50 nM, lipofectin, approximately 24 hours, relative to untreated control cells
Strand notation (5' to 3'): a small letter for the sugar, then the base; units joined by * are phosphorothioate-linked, units joined directly phosphodiester-linked; [ ] holds rarer units or linkages, { } end groups; capitals alone tell only the bases. e = 2'-O-(2-methoxyethyl) (MOE); [5mC] = 5-methylcytosine; d = 2'-deoxy (DNA)
Provide only the numeric value, understood in %.

Here's what some known entries look like.
[[record]]
substance = "407656 (antisense e[5mC]*eA*eG*e[5mC]*eA*dA*dG*dA*dG*dT*dG*d[5mC]*dA*dG*d[5mC]*eT*eT*eG*e[5mC]*e[5mC]) [compound 407656]"
result_number = 43

[[record]]
substance = "407929 (antisense eG*e[5mC]*eA*eG*eA*dG*d[5mC]*dA*dG*d[5mC]*dA*dG*d[5mC]*d[5mC]*dT*eG*eA*eG*eG*e[5mC]) [compound 407929]"
result_number = 53

[[record]]
substance = "407952 (antisense eG*eG*eA*eT*e[5mC]*d[5mC]*dT*dG*dG*dG*dA*dG*d[5mC]*dT*dA*e[5mC]*eA*eG*e[5mC]*e[5mC]) [compound 407952]"
result_number = 41

[[record]]
substance = "407632 (antisense eT*e[5mC]*e[5mC]*eG*eT*dT*d[5mC]*dG*dG*dG*d[5mC]*dA*dG*dG*d[5mC]*eA*eG*eA*eG*eG) [compound 407632]"
result_number = 46

[[record]]
substance = "407595 (antisense eT*e[5mC]*e[5mC]*eT*eG*dA*dG*dG*d[5mC]*d[5mC]*dT*dT*dA*dG*d[5mC]*eG*eA*e[5mC]*e[5mC]*e[5mC]) [compound 407595]"
result_number = 71

[[record]]
substance = "407933 (antisense eT*eG*eA*eT*eA*dA*dT*dG*dG*dA*dT*dA*dA*dG*dA*eA*e[5mC]*e[5mC]*eA*eG) [compound 407933]"
result_number = 58

[[record]]
substance = "407613 (antisense eT*eG*e[5mC]*eT*e[5mC]*dA*d[5mC]*dA*dG*d[5mC]*d[5mC]*dG*d[5mC]*d[5mC]*dG*eT*eT*e[5mC]*eT*e[5mC]) [compound 407613]"
result_number = 66

[[record]]
substance = "407643 (antisense e[5mC]*eA*e[5mC]*eA*e[5mC]*dA*dT*dG*dG*dA*dG*dT*d[5mC]*dA*dG*e[5mC]*eA*eT*e[5mC]*eG) [compound 407643]"
result_number = 84

[[record]]
substance = "407654 (antisense e[5mC]*e[5mC]*eA*e[5mC]*eT*dG*d[5mC]*dA*dG*d[5mC]*d[5mC]*dA*dG*dG*dG*e[5mC]*e[5mC]*eT*eG*eG) [compound 407654]"
result_number = 34

[[record]]
substance = "407892 (antisense e[5mC]*e[5mC]*e[5mC]*e[5mC]*eA*dT*dT*d[5mC]*dT*dG*dG*d[5mC]*dA*dT*dG*eG*eA*e[5mC]*eT*eT) [compound 407892]"
result_number = 68


The record that follows has no % Inhibition shown yet.
Dear colleague, I am looking for the recorded % Inhibition of the following substance: 407914 (antisense e[5mC]*e[5mC]*eA*eG*e[5mC]*dT*dG*dA*d[5mC]*dG*dA*dT*dG*d[5mC]*d[5mC]*e[5mC]*eG*eT*e[5mC]*eA) [compound 407914]
82
